- TARGET DESC: Beta-secretase 1 (Homo sapiens)
- TEST DETAILS: Inhibition of human BACE1 expressed in HEK293 cells assessed as reduction in soluble APPbeta level after 4 hrs by Western blot analysis
- Assay type: cell-based
- Design: concentration or dose not given beside the values
MEASURED PROPERTY: Activity (%)
Numbers only, in %.

# count of solved cases: 4
| COMPOUND | UNIT STRING | Activity |
| --- | --- | --- |
| C=C(C)[C@H](CC=C(C)C)Cc1c(O)cc(OC)c2c1O[C@H](c1ccc(O)cc1OC)CC2=O | % | 51.1 |
| C=C(C)[C@H](CC=C(C)C)Cc1c(O)cc(O)c2c1O[C@H](c1ccccc1O)CC2=O [KUSHENOL A] | % | 61.8 |
| C=C(C)[C@H](CC=C(C)C)Cc1c(O)cc(O)c2c1O[C@H](c1ccc(O)cc1O)CC2=O [SOPHORAFLAVANONE G] | % | 56 |
| C=C(C)C(CC=C(C)C)Cc1c(O)cc(OC)c2c1O[C@H](c1ccc(O)cc1O)CC2=O (stereo not given in full) [KURARINONE] | % | 51.9 |

Continue with the compound presented below.
The measured Activity that C=C(C)[C@H](CC=C(C)C)Cc1c(O)cc(O)c2c1O[C@H](c1ccc(O)cc1OC)CC2=O [LEACHIANONE A] showed for Beta-secretase 1 (Homo sapiens) is 40.7

====

Can you tell me IC50 for the items I'm about to list?
- TARGET DESC: Beta-secretase 1 (Homo sapiens, UniProt P56817)
- Sequence (P56817 whole entry): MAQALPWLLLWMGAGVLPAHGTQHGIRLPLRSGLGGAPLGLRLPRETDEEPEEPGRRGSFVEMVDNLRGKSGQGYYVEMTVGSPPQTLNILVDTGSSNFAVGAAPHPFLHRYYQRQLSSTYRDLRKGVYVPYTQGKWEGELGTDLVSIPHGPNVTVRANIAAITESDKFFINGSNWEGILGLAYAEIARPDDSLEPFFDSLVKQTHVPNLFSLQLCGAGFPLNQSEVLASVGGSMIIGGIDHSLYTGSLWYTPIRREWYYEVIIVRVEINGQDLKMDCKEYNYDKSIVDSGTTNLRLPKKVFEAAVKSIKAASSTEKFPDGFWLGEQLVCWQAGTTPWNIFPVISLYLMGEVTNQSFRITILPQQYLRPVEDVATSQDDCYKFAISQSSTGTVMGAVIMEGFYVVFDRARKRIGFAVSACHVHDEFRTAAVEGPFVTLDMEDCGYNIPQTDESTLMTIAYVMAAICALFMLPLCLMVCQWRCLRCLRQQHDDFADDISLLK
Numbers only, in µM.

| MOLECULE | IC50 (µM) |
| --- | --- |
| C=C(C)[C@H](CC=C(C)C)Cc1c(O)cc(OC)c2c1O[C@H](c1ccc(O)cc1OC)CC2=O | 6.7 |
| C=C(C)[C@H](CC=C(C)C)Cc1c(O)cc(O)c2c1O[C@H](c1ccc(O)cc1OC)CC2=O | 8.4 |
| C=C(C)C(CC=C(C)C)Cc1c(O)cc(OC)c2c1O[C@H](c1ccc(O)cc1O)CC2=O (some centres undefined) | 3.3 |

Now consider a different molecule.
IC50 recorded for this molecule, "C=C(C)[C@H](CC=C(C)C)Cc1c(O)cc(O)c2c1O[C@H](c1ccccc1O)CC2=O" , is 2.6

====

- TARGET DESC: Beta-secretase 1 (Homo sapiens, UniProt P56817)
MEASURED PROPERTY: pKi
Numbers only, as −log10 of the molar value.

The compound "C=C(C)[C@H](CC=C(C)C)Cc1c(O)cc(O)c2c1O[C@H](c1ccc(O)cc1O)CC2=O" , tested on Beta-secretase 1 (Homo sapiens, UniProt P56817), showed pKi of 5.96

These measurements were taken from ChEMBL document CHEMBL1155037.
